The reported numbers originate from the supplement of paper PMC8671470.

Please provide measured cell viability for the entries that follow.
Test system: LAMA-84
TEST_DESCRIPTION: cell viability (% survival relative to DMSO control, bortezomib = 0%); higher = less cytotoxic
EXPERIMENTAL_SETUP: 1000 nM; 72 h
Provide the reading as a plain figure in %.

Exam item: Endpoint output: cell viability of "Fc1ccc(CNc2ncnc3ccc(F)cc23)cc1" . Value?
Marked response: 66.4

Exam item: What does the record list as cell viability for "c1ccc2c(c1)SCc1c-2[nH]c2ccccc12" ?
Marked response: 109

Exam item: Could you tell me which cell viability is on file for "COc1cc(/C=C/c2ccc(OC)cc2OC)cc(OC)c1" ?
Marked response: 96.4

---

System: THP-1
TEST_DESCRIPTION: cell viability (% survival relative to DMSO control, bortezomib = 0%); higher = less cytotoxic
EXPERIMENTAL_SETUP: 1 nM; 72 h
Counter-ions that a name gives are not always drawn.
Could you please report measured cell viability for the items listed next?

Exam item: Record "CN1CC(=O)N2[C@H](c3ccc4c(c3)OCO4)c3[nH]c4ccccc4c3C[C@@H]2C1=O" : what is its cell viability with THP-1?
Marked response: 96.7%

Exam item: What value of cell viability on THP-1 does NC(CCC(=O)NC(CSCc1ccc(Br)cc1)C(=O)NCC(=O)OC1CCCC1)C(=O)OC1CCCC1 (stereo unspecified) have?
Marked response: 103%

Exam item: Missing value: cell viability, THP-1, entry "CCCCCCCCCCCCCCOc1ccc(C(=O)O)o1" . Fill in?
Marked response: 98.2%

Exam item: Lab note: need cell viability for "O=c1oc2c(cc1O)oc(=O)c1cc(O)c(O)c(O)c12" on THP-1, anyone have it?
Marked response: 98%

Exam item: // fetch THP-1 cell viability for "Cc1nnc(-c2ccc(N3CCC(Oc4ccccc4C(F)(F)F)CC3)nn2)s1"
Marked response: 97.9%

Exam item: Request body: readout cell viability, system THP-1, query "Cl.NC1=CCCN1Cc1nc(O)nc(O)c1Cl" . Return the value.
Marked response: 102%

Exam item: Given the entry "Oc1ncc(F)c(O)n1" , what cell viability was observed with THP-1?
Marked response: 101%

Exam item: Recall the recorded cell viability for "N=C(N)c1ccc(N=NNc2ccc(C(=N)N)cc2)cc1" with THP-1 and state it.
Marked response: 105%

Exam item: Record "c1ccc2c(c1)SCc1c-2[nH]c2ccccc12" : what is its cell viability with THP-1?
Marked response: 105%

Exam item: Query cell viability on THP-1 for "Cc1cc(O)c2c(c1)C(=O)c1cc(O)cc(O)c1C2=O"
Marked response: 90.6%

Exam item: Notebook: pull reported cell viability for THP-1, entry CC(C)(Cc1ccccc1)NCC(O)c1ccc(O)c(NS(C)(=O)=O)c1 (stereo unspecified) [Zinterol hydrochloride]
Marked response: 109%

---

For each of the molecules below, state its cell viability.
Test system: NOMO-1
TEST_DESCRIPTION: cell viability (% survival relative to DMSO control, bortezomib = 0%); higher = less cytotoxic
EXPERIMENTAL_SETUP: 10000 nM; 72 h
// units = %; emit number, no label

Exam item: Need cell viability of "Cl.OC[C@H]1NC[C@H](O)[C@@H](O)[C@H]1O" , thanks.
Marked response: 94.8

Exam item: Which cell viability value belongs to "CN(C)C(=N)NC(=N)N" ?
Marked response: 92.2

Exam item: Entry "CCCC(CCC)C(=O)O" has what cell viability?
Marked response: 104

Exam item: Fill in: cell viability of NCc1ccc(S(N)(=O)=O)cc1 [4-Homosulfanilamide] is ___
Marked response: 100

Exam item: cell viability for "c1ccc2c(c1)SCc1c-2[nH]c2ccccc12" ?
Marked response: 0.816

Exam item: Query: cell viability; subject: "O=C(Oc1cccc(F)c1OC(=O)c1cccc(O)c1)c1cccc(O)c1"
Marked response: 82.1

Exam item: I have this molecule here, "CC(C)c1ccc2c(c1)c(SC(C)(C)C)c(CC(C)(C)C(=O)O)n2Cc1ccc(Cl)cc1" , and I need its recorded cell viability.
Marked response: 97.5

Exam item: For the molecule shown here, "O=C(Oc1ccc([N+](=O)[O-])cc1)N1CCC(C(O)(c2ccc3c(c2)OCO3)c2ccc3c(c2)OCO3)CC1" , give the reported cell viability.
Marked response: 95.2

Exam item: May I ask what cell viability has been recorded for NC(CCC(=O)NC(CSCc1ccc(Br)cc1)C(=O)NCC(=O)OC1CCCC1)C(=O)OC1CCCC1 (centres undefined) ?
Marked response: 95.8

---

Tested on: myeloid leukemia patient primary cells Pat.10
TEST_DESCRIPTION: area under dose-response curve (viability, 1 nM-10 uM) (fraction (0-1)); higher = more sensitive
EXPERIMENTAL_SETUP: 72 h
PROPERTY_MEASURED: area under dose-response curve
Reply with just the number.

Exam item: So what's the measured area under dose-response curve for this one? O=C(Cc1cccc(OC(F)(F)F)c1)Nc1ccc(CCCCc2nnc(NC(=O)Cc3ccccn3)s2)nn1 [CB-839]
Marked response: 0.665

Exam item: What does the data say about its area under dose-response curve? Entry: "c1ccc2c(c1)SCc1c-2[nH]c2ccccc12"
Marked response: 0.505

---

System: myeloid leukemia patient primary cells Pat.8
TEST_DESCRIPTION: cell viability (% survival relative to DMSO control); higher = less cytotoxic
EXPERIMENTAL_SETUP: 100 nM; 72 h
PROPERTY_MEASURED: cell viability (%)
Respond numerically; units are % and should not be typed.

Exam item: Give the measured cell viability of "c1ccc2c(c1)SCc1c-2[nH]c2ccccc12" .
Marked response: 69.9

Exam item: Report cell viability for "O=C(c1c2ccccc2cc2ccccc12)N1CCC(N2CCC[C@@H](C(=O)N3CCOCC3)C2)CC1" please.
Marked response: 93.3

Exam item: Report cell viability for Fc1ccc(CNc2ncnc3ccc(F)cc23)cc1 [Spautin 1] please.
Marked response: 85.6

Exam item: Which cell viability reading was recorded for the compound Nc1nc(O)c2c(CCc3ccc(C(=O)N[C@@H](CCC(=O)O)C(=O)O)cc3)c[nH]c2n1 [Pemetrexed] ?
Marked response: 89.8

Exam item: Give the measured cell viability of CCn1c(=O)/c(=C2\Sc3ccccc3N2C)s/c1=C\c1cccc[n+]1CC.[Cl-] [MKT-077] .
Marked response: 95.1

---

Tested on: myeloid leukemia patient primary cells Pat.13
TEST_DESCRIPTION: cell viability (% survival relative to DMSO control); higher = less cytotoxic
EXPERIMENTAL_SETUP: 1 nM; 72 h
Counter-ions that a name gives are not always drawn.
Provide the reported cell viability of each item.
All answers are understood in %, so give the number only.

Exam item: Sample O=C(/C=C/c1cccnc1)NCCCCC1CCN(C(=O)c2ccccc2)CC1 [Daporinad] — what was its cell viability?
Marked response: 95

Exam item: Tell me the measured cell viability of Fc1ccc(CNc2ncnc3ccc(F)cc23)cc1 [Spautin 1] , please.
Marked response: 97.7

Exam item: Report cell viability for "c1ccc2c(c1)SCc1c-2[nH]c2ccccc12" please.
Marked response: 90.5

Exam item: If you can, please state the reported cell viability value of Oc1ncc(F)c(O)n1 [5-fluorouracil] .
Marked response: 88.8

Exam item: For the molecule CC(C)(Cc1ccccc1)NCC(O)c1ccc(O)c(NS(C)(=O)=O)c1 (stereo not given) [Zinterol hydrochloride] , what cell viability is on record?
Marked response: 96.7

---

Tested on: KU-812
TEST_DESCRIPTION: cell viability (% survival relative to DMSO control, bortezomib = 0%); higher = less cytotoxic
EXPERIMENTAL_SETUP: 10000 nM; 72 h
PROPERTY_MEASURED: cell viability (%)
Output spec: scalar in %, unitless text.

Exam item: Fill in the blank: the reported cell viability of "COc1ccc2c(c1)c(CC(=O)O)c(C)n2C(=O)c1ccc(Cl)cc1" is ____.
Marked response: 80

Exam item: Returns the measured cell viability for the input compound. Input: O=[As]O[As]=O (centres undefined) [Arsenic trioxide]
Marked response: 61.5

Exam item: // returns reported cell viability for input "Fc1ccc(CNc2ncnc3ccc(F)cc23)cc1"
Marked response: 12.6

Exam item: Entry "OCCN(CCO)c1nc(N2CCCCC2)c2nc(N(CCO)CCO)nc(N3CCCCC3)c2n1" : reported cell viability = ?
Marked response: 69.4

Exam item: Endpoint output: cell viability of "CC(C)(O)CNc1nc(Nc2ccnc(C(F)(F)F)c2)nc(-c2cccc(C(F)(F)F)n2)n1" . Value?
Marked response: 93.2

Exam item: Would you kindly share the measured cell viability for NS(=O)(=O)c1ccc(NC(=O)Cc2ccccc2)cc1 [4-(2-Phenylacetamido)Benzenesulfonamide] ?
Marked response: 107

Exam item: Fill in: cell viability of "O=c1oc2c(cc1O)oc(=O)c1cc(O)c(O)c(O)c12" is ___
Marked response: 105

Exam item: cell viability for "O=C(Cc1cccc(OC(F)(F)F)c1)Nc1ccc(CCCCc2nnc(NC(=O)Cc3ccccn3)s2)nn1" ?
Marked response: 66.4

Exam item: Please look up its cell viability: "NS(=O)(=O)c1ccc(S(=O)(=O)Nc2cccc3c(Cl)c[nH]c23)cc1"
Marked response: 13.7

Exam item: Any idea what cell viability was measured for "Cc1nnc(-c2ccc(N3CCC(Oc4ccccc4C(F)(F)F)CC3)nn2)s1" ?
Marked response: 97.5

Exam item: Give the measured cell viability of "Nc1ccn([C@@H]2O[C@H](CO)[C@@H](O)C2(F)F)c(=O)n1" .
Marked response: 6.04

Exam item: Could you share which cell viability value was measured for "OCC(CO)N[C@H]1C[C@](O)(CO)[C@@H](O)[C@H](O)[C@H]1O" ?
Marked response: 91.3

Exam item: Please look up its cell viability: "O=c1[nH]c(=O)n([C@H]2C[C@H](O)[C@@H](CO)O2)cc1I"
Marked response: 66.5

Exam item: Recorded cell viability of "CC(=O)N[C@@H](CS)C(=O)O" , please.
Marked response: 97

Exam item: Can you share its cell viability? I mean this compound: "c1ccc2nc(-c3nnc4sc(-c5cnccn5)nn34)ccc2c1"
Marked response: 95.7

Exam item: What value of cell viability has been reported for the following compound? "O=C(Oc1ccc([N+](=O)[O-])cc1)N1CCC(C(O)(c2ccc3c(c2)OCO3)c2ccc3c(c2)OCO3)CC1"
Marked response: 85.8

Exam item: Which cell viability is reported for this compound? OC[C@H]1OC(O)C[C@@H](O)[C@@H]1O (some centres undefined)
Marked response: 95.5

Exam item: Query: cell viability; subject: "O=NN(CCCl)C(=O)NCCCl"
Marked response: 97.1

Exam item: Would you mind telling me what cell viability value was observed for "O[C@H]1[C@H](O)[C@@H](O)CN2CC[C@H](O)[C@H]12" ?
Marked response: 94.6
